test system: HOP-18 NSCLC; experiment: NCI tumour cell line growth inhibition, 48 h
measure.name: TGI

Query the reported TGI for HOP-18 NSCLC; item: COC(=O)C(=O)C(C(=O)C(=O)Nc1ccc([N+](=O)[O-])cc1[N+](=O)[O-])c1nc2ccc([N+](=O)[O-])cc2[nH]c1=O (configuration not stated)
> 100 µM

Query the reported TGI for HOP-18 NSCLC; item: "CN(C)CCN1N=Nc2cccc3cccc1c23"
> 100 µM

Query the reported TGI for HOP-18 NSCLC; item: "CC(C)(C)c1ccc(Oc2ccc(C#N)c(C#N)c2)c(C(C)(C)C)c1"
> 100 µM

Query the reported TGI for HOP-18 NSCLC; item: "CC[N+](C)(C)c1ccc(C(=C2C=CC(=[N+](C)C)C=C2)c2ccc(N(C)C)cc2)cc1"
> 100 µM

Query the reported TGI for HOP-18 NSCLC; item: "O=C(Nc1ccccc1)O/N=C1/CCCC/C1=C\c1ccccc1"
29.9 µM

Query the reported TGI for HOP-18 NSCLC; item: "N#C[C@]12CC3(CC[C@H]1CC1(C2)OCCO1)OCCO3"
> 100 µM

Query the reported TGI for HOP-18 NSCLC; item: "Cc1c2[nH]c3ccc(Br)cc3c2c(C)c2[nH]ccc(=O)c12"
22.9 µM

Query the reported TGI for HOP-18 NSCLC; item: CC12CC(=O)OC(Cc3ccccc31)O2 (configuration not stated)
> 100 µM

Query the reported TGI for HOP-18 NSCLC; item: CCCCCCC(O)C/C=C/CCCCCC/C(C(=O)OC)=C(/O)C(=O)OCC (configuration not stated)
> 100 µM

Query the reported TGI for HOP-18 NSCLC; item: NC(=O)c1csc(C2O[C@@H](COP(=O)(O)OP(=O)(O)OC[C@H]3OC(n4cnc5c(N)ncnc54)[C@H](O)[C@@H]3O)[C@H](O)[C@@H]2O)n1 (some centres not stated)
> 100 µM

Query the reported TGI for HOP-18 NSCLC; item: "CN1NC2=NCCN=C3NN(C)C(=NCCN=C1S2)S3"
> 100 µM

Query the reported TGI for HOP-18 NSCLC; item: "O=[N+]([O-])c1ccc(OCCNc2cccc3ccccc23)cc1"
> 100 µM

###

tested on: MOLT-4 leukemia; assay: NCI tumour cell line growth inhibition, 48 h
measure.name: TGI (µM)
Could you give me the number in µM? Just the number is fine.

Query the reported TGI for MOLT-4 leukemia; item: CCCOP1(=O)C=C(C)C(Cl)=C(C)C1 (stereo not drawn)
64.9

Query the reported TGI for MOLT-4 leukemia; item: "O=C(Nc1cccc(NS(=O)(=O)c2ccc(F)cc2)c1)c1ccc(-c2ccccc2)cc1"
14.5

Query the reported TGI for MOLT-4 leukemia; item: "CCOC(=O)c1sc2ncn(Cc3cccc(Cl)c3)c(=O)c2c1C"
25.9

Query the reported TGI for MOLT-4 leukemia; item: "COC(=O)C/C(C)=C/[C@@H](O)[C@H]1O[C@@H]2CC/C(Cl)=C/C/C=C(/C)[C@H](OC(C)=O)CC(=O)O[C@@H]1C2"
19.8

###

tested on: MDA-N; test: NCI tumour cell line growth inhibition, 48 h
Hi there, I'd appreciate the recorded TGI for every entry that follows.

Name the reported TGI value associated with the molecule "CCOC(=O)/C(=C\NC[C@@H](C)O)c1nc2ccccc2[nH]1"
> 100 µM

Name the reported TGI value associated with the molecule "N#Cc1c(-c2cccc(Br)c2)cc(-c2ccc(Cl)cc2)nc1N"
46.7 µM

Name the reported TGI value associated with the molecule CCOC(=O)N(C)CCC1CC=CC(=O)C1c1cccc(OC)c1OC (stereo not given)
36.4 µM

Name the reported TGI value associated with the molecule CC(C)SC1SCC2C(=O)N(C)C3(CC3C)C(=O)OCC(NC(=O)c3nc4ccccc4cc3O)C(=O)NC(C)C(=O)N(C)C1C(=O)N(C)C1(CC1C)C(=O)OCC(NC(=O)c1nc3ccccc3cc1O)C(=O)NC(C)C(=O)N2C (stereo not given)
< 0.0001 µM

Name the reported TGI value associated with the molecule "CCOC(=O)NC(Nc1cccc(F)c1)(C(F)(F)F)C(F)(F)F"
> 100 µM

Name the reported TGI value associated with the molecule "O=S(=O)(O)c1ccc(N=Nc2c(O)ccc3ccccc23)cc1"
> 100 µM

Name the reported TGI value associated with the molecule COc1ccc(-c2c(C#N)c(N)n(C3OCC(O)C(O)C3O)c(=S)c2C#N)cc1 (stereo not given)
> 100 µM

Name the reported TGI value associated with the molecule CN(C(=O)C12C3C4C1C1C2C3C41C(=O)O)C(C)(C)C (stereo not given)
> 100 µM

Name the reported TGI value associated with the molecule "O=c1[nH]nc(Cc2ccccc2)n1N=C1CCCCC1"
> 100 µM

Name the reported TGI value associated with the molecule "O=[N+]([O-])/C(C(Cl)=C(Cl)Cl)=C(\Nc1cccc2cccnc12)Sc1ccccc1"
> 100 µM
